Target: androgen receptor (Rattus norvegicus)
Sequence (P15207 1-902): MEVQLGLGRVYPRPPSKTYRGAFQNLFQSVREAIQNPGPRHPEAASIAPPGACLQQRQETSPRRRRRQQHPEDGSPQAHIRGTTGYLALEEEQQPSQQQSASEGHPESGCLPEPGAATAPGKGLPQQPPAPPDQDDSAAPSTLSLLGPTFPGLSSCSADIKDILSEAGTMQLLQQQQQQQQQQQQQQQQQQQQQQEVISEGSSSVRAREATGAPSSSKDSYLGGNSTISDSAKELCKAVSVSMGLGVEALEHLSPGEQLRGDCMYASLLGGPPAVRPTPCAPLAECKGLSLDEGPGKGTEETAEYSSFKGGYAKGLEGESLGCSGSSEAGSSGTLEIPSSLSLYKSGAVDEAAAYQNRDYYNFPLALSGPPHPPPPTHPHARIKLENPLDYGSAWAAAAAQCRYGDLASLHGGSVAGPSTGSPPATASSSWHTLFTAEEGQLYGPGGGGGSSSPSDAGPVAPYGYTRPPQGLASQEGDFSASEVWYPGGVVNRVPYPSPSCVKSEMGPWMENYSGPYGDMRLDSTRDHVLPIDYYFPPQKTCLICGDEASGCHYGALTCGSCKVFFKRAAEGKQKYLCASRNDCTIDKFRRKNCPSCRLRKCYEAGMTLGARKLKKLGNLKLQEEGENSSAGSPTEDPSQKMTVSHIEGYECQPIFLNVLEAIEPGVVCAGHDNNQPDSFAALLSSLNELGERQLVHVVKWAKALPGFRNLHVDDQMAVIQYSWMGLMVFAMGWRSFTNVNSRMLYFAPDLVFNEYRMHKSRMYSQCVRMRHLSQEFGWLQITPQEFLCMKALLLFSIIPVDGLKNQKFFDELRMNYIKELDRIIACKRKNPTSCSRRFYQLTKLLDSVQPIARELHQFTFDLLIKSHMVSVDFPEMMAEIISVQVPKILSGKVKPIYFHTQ
assayReadout: Ki (nM)
Give your result in nM as a bare value.

Data point: C[C@](O)(COc1ccc(F)c(F)c1)C(=O)Nc1ccc([N+](=O)[O-])c(C(F)(F)F)c1 [Compound XI] ; Ki = 3.4
